measurement-kind: pKd
Keep it numeric: pKd is minus log10 of the concentration in mol/L.

Which pKd is reported with TamL enzyme (Streptomyces sp. 307-9, UniProt D3Y1I2) for this entry: CC(C=CC(O)=C1C(=O)CNC1=O)=CC(C)C1OC2(C)OC(C(O)C=C2C)C1C (stereo not shown) ? 5.65
